Measured self-cleavage, listed per entry for reference.
B1: HDV Ribozyme (parent)
chain: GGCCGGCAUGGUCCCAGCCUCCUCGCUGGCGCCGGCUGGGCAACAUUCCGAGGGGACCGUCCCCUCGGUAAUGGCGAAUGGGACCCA

Variants of: B1
TEST SUMMARY: self-cleavage, relative activity (ratio to wild type); higher = more cleavage; co-transcriptional
PROPERTY MEASURED: self-cleavage

# MUTATION NOTATION, PROPERTY MEASURED, NUMERIC RESULT
rows = [
    ("G10C C19U", "self-cleavage", 0.0264),
    ("G11U G52C", "self-cleavage", 0.218),
    ("A45C G74U", "self-cleavage", 0.369),
    ("G17C C48A", "self-cleavage", 0.388),
    ("G38C A43G", "self-cleavage", 0.219),
    ("G11U C13A", "self-cleavage", 0.197),
    ("A70U G80C", "self-cleavage", 0.213),
    ("U23C A42C", "self-cleavage", 0.161),
    ("U23G A45U", "self-cleavage", 0.312),
    ("C44G G55C", "self-cleavage", 0.898),
    ("U23G C30U", "self-cleavage", 0.203),
]

These entries and their values trace back to the RNAGym collection of RNA variant scans (doi:10.7554/elife.80360).
